Test system: K4 kissing-loop RNA reporter;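 further: bound reporter read as fluorescence of individual clusters on recovered sequencing chips by microscopy, with normalized cluster intensities fitted with a binding model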
assay.info: apparent KD of K4 kissing-loop reporter; higher = weaker reporter binding
conditions.used: Eterna round: R107; input ligand: theophylline 20 uM
Consider the reported apparent KD of K4 kissing-loop reporter of an entry and match it to a band in one: < 200 nM; two: ≥ 200 nM and < 400 nM; three: ≥ 400 nM

UUUUUUUACUGAAGGAGCGGCAAUUGAUACGUAGAUAUAGUGAUGUUAUAUAAGAUAGAGAGCCAGGUAGGUCGCAGAUUUUUUU [ExArgB.W]
one
GGCACUUUUGCUUGGAACCGUCAAGCUCGAUAGGAUAUGCCGAAAGGCAGAAGGAUUGACCUACAGAGUGAUGUUCUGCGUGCCU
two
AAAAUAAACCAGUGAUGUUGGUGUCCAGAUACCAGCGAUAAAAGUCGCCCUUGGCAGCUGUGGACGUACAAAAUAAGUACGUCCU [MatMod 2 - Jieux - Same State - Theophylline A]
three
GGGAGUAGUGCGGCCGCCACUGUGAAAGAAGAAGAAUAUAGUGAUGUUAUAUAGGAAAGGAAGAAUAGGACCGGGCAUUAGAUUU [SSTRyptB.K]
two
AGCGCUGCCUGAGGAUAUAGAGACGAGUGAUGUUCGUGGAUUGAUACCAGUGAUGUUGGUCUAUUUCUAGAAGGCAGGCGAUCGU [Exclusion FMN B GF 3]
one
UUUCGGUUCUGAGGAUAUUCGGACAAAUAUAGUGAUGUUGUAUAAGGAGGAGGGUGUUGGGAGUGAGGAGAAGGCAGAAGAGGAU [ExFMNB.S]
three

Hi there! Could you help me figure out the category for AUGGGUUGUUGAAGGAGCGCCGCCAGUGAUGUUGGGAGUUAGAUACCAGUGAUGUUGGGCCGGCAGGUAGGUCGCGGCGAUUUAU [Exclusion Arginine B GF 19] please?
two

Hi there! Could you help me figure out the category for AGGGACUCUUCGGAGUCCCGGUCAAGGGAUACCAGUGAUGUUGGUCACCCUUGGCAGCCCAGAAACCAAGCCACCAAAGGUGGCA [Omei KL Theo A Exc A v3] please?
one

Hi there! Could you help me figure out the category for AAAGAGUCCUGAGCCGAAGAAGAAGGCGGACGAGGACCGGUACGGCCGCCACUCGAAAGGAGUGCGGCUGAGUGAUGUUUGGCCG [Tryptophan A (C-G optomized)] please?
two

Hi there! Could you help me figure out the category for CCAGGACGAUGAGGAGGAUGAAUUACUGAAGGAGCGCAUAUGGUUGCAGGUAGGUCGCGGUGAACAAGUAUAGUGAUGUUAUAUC [SSArgA.S] please?
two

Hi there! Could you help me figure out the category for UGGAUAUCGUUUAGUCUGGUGAGGUCAGAUACCAGACUAGCGAUAGUCCCUUGGCAGCUGAUUAUGAUUGAGUGAUGUUCAAUCG [Theo A Ex t9a] please?
one

Hi there! Could you help me figure out the category for UGGGUGUAGUGAUGUUAUAUAGAGAGUGAUACCAGUUUAGAGAAGAACCCUUGGCAGCAUAGAAGAGUAUCAUUGGAGAAGAAUG [ExTheophyl.As] please?
two

Hi there! Could you help me figure out the category for CGCCGGAAGGCGAGCGCUCCCACUCCGGAAGGAGCGCCCGGAAGGGCAGGUAGGUCGCCGGAGUGAUGUUCCGGUGGAGGGCUCG [#2 Exclusion - Arginine A Attempt #11 (Inspired by Omei)] please?
one

Hi there! Could you help me figure out the category for CACGAUGAAUUCUCUAGGAGUGAUGUUUUUCGAGGACCGGUACGGCCGCCACUCGGACGACGAGUGUGGUAGCGGGCUGAAGACU [zgullin] please?
two

Hi there! Could you help me figure out the category for AGUGAUGUAUGGCGGUGUGUCACUUAAAAUCAGGAUAUAUAAACAAAUAGAAGGGAUGGCGGAGUGAUGUUCCGCCGGCCGCCAU [FMN A Exl V2] please?
one

Hi there! Could you help me figure out the category for UUGAGCCUGACGGAAGUCAGGCUCUGCGAGCGAGGACCGGUACGGCCGCCACUCGGUGCAGUGAUGUUGCAUGGCCGCAAGGCCG [#2 Exclusion - Tryptophan A Attempt #16 (HarryS)] please?
two

Hi there! Could you help me figure out the category for CCAGGACGAUGAGGAUGAUGAAUUACUGAAGGAGCGCAUAUGGUUGCAGGUAGGUCGCGGUGAACAAGUAUAGUGAUGUUAUACC [SSArgA.U] please?
three

Hi there! Could you help me figure out the category for CGCAGUGAUGUUGCGAGUUUGAUCAGGGAAGGAGCGGCUCAGAAGCCAGGUAGGUCGCCCACGCAGUGAUGUUGUGUAUUCGGGU [Exclusion Arginine A GF 1] please?
one

Hi there! Could you help me figure out the category for AUGACGGGUAGUGAUGUUAUCCACGAUGGGAAGGAUAUCAACCGUGUGAGAAGGUCCUUAUCGGUGCGGCACAUGCAGGUACUAC [theeternabot_sameState_KL_FMN_A_41] please?
three

Values from the supplement of paper PMC9170038
